All figures here come from ChEMBL document CHEMBL4251674.

Would you kindly list selectivity ratio for each of these molecules?
assay_method_text: Selectivity index, ratio of CC50 for African green monkey Vero cells to EC50 for Chikungunya virus 899 infected in African green monkey Vero cells
Assay type: toxicity
cond: read-out: Selectivity Index
Answers are plain numbers.

The following molecules have reported results that may help.
> print(dat)
                      smiles.representation      quantity.name  observed
1  CCCCC/C=C/C=C\C(=O)O[C@@H]1[C@@H](C)[C@]2(O)[C@@H]3C=C(C)C(=O)[C@H]3CC(CO)=C[C@H]2[C@@H]2C(C)(C)[C@]12OC(=O)C(C)C  selectivity ratio         6
2  CC/C=C\C/C=C/C=C\C(=O)O[C@@H]1[C@@H](C)[C@]2(O)[C@@H]3C=C(C)C(=O)[C@H]3CC(CO)=C[C@H]2[C@@H]2C(C)(C)[C@]12OC(=O)C(C)C  selectivity ratio         4
3  CCC/C=C/C=C\C(=O)O[C@@H]1[C@@H](C)[C@]2(O)[C@@H]3C=C(C)C(=O)[C@H]3CC(CO)=C[C@H]2[C@@H]2C(C)(C)[C@]12OC(=O)C(C)C  selectivity ratio        41

## Input Assign selectivity ratio to the following record: `CCC/C=C/C=C/C=C\C(=O)O[C@@H]1[C@@H](C)[C@]2(O)[C@@H]3C=C(C)C(=O)[C@H]3CC(CO)=C[C@H]2[C@@H]2C(C)(C)[C@]12OC(=O)C(C)C`
## Output 34
